Exercise: state measured inhibition at 0.1 µM for each of the compounds provided.
Assay Target: UniProt:P00797
Sequence (P00797 67-406): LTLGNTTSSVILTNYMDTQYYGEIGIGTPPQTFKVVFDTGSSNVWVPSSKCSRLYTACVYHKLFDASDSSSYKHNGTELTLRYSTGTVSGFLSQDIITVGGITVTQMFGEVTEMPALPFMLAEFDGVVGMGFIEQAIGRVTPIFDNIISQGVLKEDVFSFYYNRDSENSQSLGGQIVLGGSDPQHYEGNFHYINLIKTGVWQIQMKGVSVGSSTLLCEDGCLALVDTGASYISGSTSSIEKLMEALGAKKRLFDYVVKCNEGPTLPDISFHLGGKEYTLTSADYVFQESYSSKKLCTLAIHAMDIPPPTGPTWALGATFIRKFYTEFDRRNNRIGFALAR
Protocol Details: Inhibition of renin activity (human renin, sheep angiotensinogen, remaining angiotensin I assayed)
Assay type: biochemical
Test Settings: 1×10^-7 M test compound, pH 7.3, 37° C., 10 minutes, mean of 3 or 4 experiments, read-out: Inhibitory activity (%) Against Human Renin (1 × 10^-7 M)
Reply numerically in %, unit not repeated.

Record summary for CNC(=O)[C@@H](C[C@H](O)[C@H](CC1CCCCC1)NC(=O)[C@H](Cc1cscn1)NC(=O)[C@@H](CC(=O)N1CCOCC1)Cc1ccc(OC)cc1)C(C)C : reported inhibition at 0.1 µM = 93.1

Record summary for CCCCNC(=O)[C@@H](C[C@H](O)[C@H](CC1CCCCC1)NC(=O)[C@H](Cc1cscn1)NC(=O)[C@@H](CC(=O)N(C)Cc1ccccc1)Cc1ccccc1)C(C)C : reported inhibition at 0.1 µM = 94.8

Record summary for CCCCNC(=O)[C@@H](C[C@H](O)[C@H](CC1CCCCC1)NC(=O)[C@H](Cc1cscn1)NC(=O)[C@@H](CC(=O)N1CCOCC1)Cc1ccccc1)C(C)C : reported inhibition at 0.1 µM = 96

Record summary for CNC(=O)[C@@H](C[C@H](O)[C@H](CC1CCCCC1)NC(=O)[C@H](Cc1cscn1)NC(=O)[C@@H](CC(=O)N1CCOCC1)Cc1ccccc1)C(C)C : reported inhibition at 0.1 µM = 95.2

Record summary for CNC(=O)[C@H](C)C[C@H](O)[C@H](CC1CCCCC1)NC(=O)[C@H](Cc1cscn1)NC(=O)[C@@H](CC(=O)N1CCOCC1)Cc1ccccc1 : reported inhibition at 0.1 µM = 95.6

Record summary for CCCCNC(=O)[C@H](C)C[C@H](O)[C@H](CC1CCCCC1)NC(=O)[C@H](Cc1cscn1)NC(=O)[C@@H](CC(=O)N(C)Cc1ccccc1)Cc1ccc(OC)cc1 : reported inhibition at 0.1 µM = 91.6

---

Exercise: state measured Inhibitory activity (%) Against Human Renin (1 × 10^-7 M) for each of the molecules provided.
Assay Target: human renin (Homo sapiens, UniProt P00797)
Protocol Details: Inhibition of renin activity (human renin, sheep angiotensinogen, remaining angiotensin I assayed)
Type: biochemical
Test Settings: 1×10^-7 M test compound, pH 7.3, 37° C., 10 minutes, mean of 3 or 4 experiments
Protocol: The ability of various compounds of the invention to inhibit the activity of renin was determined according to the following method, which follows essentially the procedure of Kokubu et al. [Hypertension, 5, 191-197 (1983)]. Specifically, each test compound was dissolved in 60% v/v aqueous ethanol. Human renin activity in the presence and absence of each compound was measured using sheep angiotensinogen. […]
A bare number is not enough; add the unit after it.

Record summary for CCCCNC(=O)[C@@H](C[C@H](O)[C@H](CC1CCCCC1)NC(=O)[C@H](Cc1cscn1)NC(=O)[C@@H](CC(=O)N1CCOCC1)Cc1ccc(OC)cc1)C(C)C [Example 4] : reported Inhibitory activity (%) Against Human Renin (1 × 10^-7 M) = 96.9%

Record summary for CNC(=O)[C@H](C)C[C@H](O)[C@H](CC1CCCCC1)NC(=O)[C@H](Cc1cscn1)NC(=O)[C@@H](CC(=O)N(C)Cc1ccccc1)Cc1ccccc1 [Example 14] : reported Inhibitory activity (%) Against Human Renin (1 × 10^-7 M) = 95.7%

Record summary for CCCCNC(=O)[C@H](C)C[C@H](O)[C@H](CC1CCCCC1)NC(=O)[C@H](Cc1cscn1)NC(=O)[C@@H](CC(=O)N1CCOCC1)Cc1ccccc1 [Example 6] : reported Inhibitory activity (%) Against Human Renin (1 × 10^-7 M) = 96.1%

Record summary for CCCCNC(=O)[C@H](C)C[C@H](O)[C@H](CC1CCCCC1)NC(=O)[C@H](Cc1cscn1)NC(=O)[C@@H](CC(=O)N(C)Cc1ccccc1)Cc1ccccc1 [Example 8] : reported Inhibitory activity (%) Against Human Renin (1 × 10^-7 M) = 96.2%

Data provenance: patent US5378689A
